Endpoint: iC3b Screen Ref Fold (fold vs CFI-HSA wild type). System: soluble human C3b (human) (UniProt P01024). Items follow.
MEASUREMENT KIND: iC3b Screen Ref Fold (fold vs CFI-HSA wild type)

Use these answered entries as a reference point.
SUBSTANCE: WT; GGSSGG (SEQ ID NO: 6); CCP_1-5; GGSS(3) + GGG; compstatin (enzyme)
RESULT: 0.03

SUBSTANCE: Δ(K1-P305); GGSSGG (SEQ ID NO: 6); fH_CCP2-3 (enzyme)
RESULT: 0.01

SUBSTANCE: WT; GGSSGG (SEQ ID NO: 6); CCP_1-4 (enzyme)
RESULT: 0.02

SUBSTANCE: CFI-HSA N531G; P535A; ΔC-term (Δ558-PFISQYNV (SEQ ID NO: 14)-565) (enzyme)
RESULT: 0.24

SUBSTANCE: WT; GGSSGG (SEQ ID NO: 6); CR1(ccp15-17); GGSSGG (SEQ ID NO: 6); fH(ccp1-4) (enzyme)
RESULT: 0.08

SUBSTANCE: fH_CCP1-4; GGGGSS(9); wt hCFI (enzyme)
RESULT: 0.66

a = Δ(K1-P305); GGSSGG (SEQ ID NO: 6); fH_CCP2-4 (enzyme)
b = CFI-HSA N531G; E457G; E461Q; ΔC-term (Δ558-PFISQYNV (SEQ ID NO: 14)-565) (enzyme)
## Task Of the two listed items, which has the higher iC3b Screen Ref Fold (fold vs CFI-HSA wild type)? First: a Second: b // output: label of the selected item
## Result b
(b: 0.5, a: 0.03)

----------
- SUBJECT OF TEST: human C4b (human) (UniProt P0C0L5)
- Sequence: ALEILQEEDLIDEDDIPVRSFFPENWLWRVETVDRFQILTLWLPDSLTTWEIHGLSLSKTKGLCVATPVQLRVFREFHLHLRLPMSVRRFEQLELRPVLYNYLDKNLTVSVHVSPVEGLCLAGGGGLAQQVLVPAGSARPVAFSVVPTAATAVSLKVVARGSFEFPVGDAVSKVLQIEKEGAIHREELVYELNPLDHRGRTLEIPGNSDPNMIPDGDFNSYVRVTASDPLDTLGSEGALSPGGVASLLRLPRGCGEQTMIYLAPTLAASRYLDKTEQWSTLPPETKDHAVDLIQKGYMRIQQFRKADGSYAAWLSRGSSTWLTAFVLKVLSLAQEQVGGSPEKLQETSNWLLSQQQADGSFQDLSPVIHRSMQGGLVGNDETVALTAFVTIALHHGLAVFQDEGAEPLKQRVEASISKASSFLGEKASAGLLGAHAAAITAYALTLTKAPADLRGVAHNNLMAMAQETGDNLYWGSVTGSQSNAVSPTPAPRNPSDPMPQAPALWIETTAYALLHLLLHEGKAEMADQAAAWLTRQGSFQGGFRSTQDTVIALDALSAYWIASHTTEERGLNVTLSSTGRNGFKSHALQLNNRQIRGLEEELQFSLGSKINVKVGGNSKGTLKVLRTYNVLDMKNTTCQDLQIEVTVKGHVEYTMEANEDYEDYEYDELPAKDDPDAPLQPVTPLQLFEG
MEASUREMENT KIND: C4b Screen Ref Fold (fold vs CFI-HSA wild type)

SUBSTANCE: WT; GGSSGG (SEQ ID NO: 6); CR1(ccp15-17) (enzyme)
RESULT: 5.25

P = WT; GGSSGG (SEQ ID NO: 6); CCP_1-5; GGSS(3) + GGG; compstatin (enzyme)
Q = fH_CCP1-4; GGGGSS(7); wt hCFI (enzyme)
## Task Param metric = C4b Screen Ref Fold (fold vs CFI-HSA wild type); output whichever of P , Q has the minimum value. Return value: the label identifying the chosen record.
## Result P

a = Δ(K1-P305); GGSSGG (SEQ ID NO: 6); fH_CCP2-3 (enzyme)
b = CFI-HSA N531G; P535A; ΔC-term (Δ558-PFISQYNV (SEQ ID NO: 14)-565) (enzyme)
## Task // compare measured C4b Screen Ref Fold (fold vs CFI-HSA wild type), left a , right b , return larger State your choice using its label.
## Result b
